molecular target: chemokine receptor 1 (CCR1) (UniProt P56482); test: competition radioligand binding on CCR1 (assay not given)
MEASUREMENT TYPE: pKi
pKi here: minus log base 10 of the concentration, concentration in moles per litre.

Recorded result, full size human chemokine HCC-1 (residues 1-74) (ligand) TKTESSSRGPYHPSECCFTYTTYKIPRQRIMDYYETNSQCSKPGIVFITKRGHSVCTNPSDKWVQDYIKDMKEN , pKi: 7.00

Ref: patent US20030158387A1
